Target: human CGRP receptor (Homo sapiens, UniProt O60894+Q16602)
Construct: SK-N-MC neuroblastoma cells (ATCC® HTB-10™) that endogenously express the hCGRP receptor; host or cells: SK-N-MC neuroblastoma cells
Sequence (Q16602 23-461): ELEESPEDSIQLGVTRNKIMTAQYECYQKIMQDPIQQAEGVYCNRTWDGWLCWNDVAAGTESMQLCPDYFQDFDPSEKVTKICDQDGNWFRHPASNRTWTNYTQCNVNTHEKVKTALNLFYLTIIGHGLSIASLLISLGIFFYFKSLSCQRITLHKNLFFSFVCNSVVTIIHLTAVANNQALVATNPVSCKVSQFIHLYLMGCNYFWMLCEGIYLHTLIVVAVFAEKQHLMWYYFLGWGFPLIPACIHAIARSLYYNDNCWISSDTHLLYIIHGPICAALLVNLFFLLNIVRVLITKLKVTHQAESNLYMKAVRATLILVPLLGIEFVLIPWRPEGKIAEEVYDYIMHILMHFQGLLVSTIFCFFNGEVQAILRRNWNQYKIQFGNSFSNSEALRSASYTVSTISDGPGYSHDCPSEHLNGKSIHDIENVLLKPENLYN
Sequence (O60894 27-148): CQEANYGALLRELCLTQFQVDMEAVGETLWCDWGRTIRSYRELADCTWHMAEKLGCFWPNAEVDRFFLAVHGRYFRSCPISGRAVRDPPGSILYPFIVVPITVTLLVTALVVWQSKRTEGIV
Assay: Inhibition of cAMP production by CGRP receptor antagonists in SK-N-MC cells (HTRF)
Type: cell-based
Conditions: SK-N-MC neuroblastoma cells, human CGRP 0.8 nM as agonist, Kb estimated as agonist-corrected IC50, mean ± SEM; read-out: Kb hCGRP
Excerpt: Inhibition of cAMP Production by CGRP Receptor Antagonists The hCGRP (human calcitonin gene-related peptide) receptor is functionally coupled to the Gαs proteins. […] Receptor activity is thus a reflection of the amount of cAMP present within cells which can be detected using standard in vitro technology. […] The amount of intracellular cAMP is quantitated using HTRF technology (Cisbio) as per vendor instructions. […]
measured quantity: Kb (nM)

Example compounds with recorded Kb:
compound structure string	measured quantity	unit of measure	reported value
CCc1cc(CNC(=O)c2ccc([C@@H](C)[C@@]3(C)C(=O)Nc4ncccc43)cc2)cc(C)n1	Kb	nM	0.0173
Cc1cc(CNC(=O)c2ccc([C@@H](C)[C@@]3(C)C(=O)Nc4ncccc43)cc2)cc(C(C)C)n1	Kb	nM	0.026

[A] Cc1cc(CNC(=O)c2ccc([C@@H](C)[C@@]3(C)C(=O)Nc4ncncc43)cn2)cc(C)n1
[B] CCc1cc(CNC(=O)c2ccc([C@@H](C)[C@@]3(C)C(=O)Nc4ncccc43)cn2)cc(C)n1
[C] Cc1cc(CNC(=O)c2ccc([C@@H](C)[C@@]3(C)C(=O)Nc4ncccc43)cn2)cc(C2CC2)n1
[D] Cc1cc(CNC(=O)c2ccc([C@@H](C)[C@@]3(C)C(=O)Nc4ncccc43)cc2)cc(C#N)n1
Inquiry: Arrange the 4 compounds by rising Kb, starting with the smallest. Give me the labels in the order the question wants.
Reply text: C, B, A, D
(C: 0.0245 nM, B: 0.0453 nM, A: 0.198 nM, D: 0.813 nM)

---

Target: human CGRP receptor (Homo sapiens, UniProt O60894+Q16602)
Construct: SK-N-MC neuroblastoma cells (ATCC® HTB-10™) that endogenously express the hCGRP receptor; host or cells: SK-N-MC neuroblastoma cells
Assay: Inhibition of cAMP production by CGRP receptor antagonists in SK-N-MC cells (HTRF)
Type: cell-based
Settings: SK-N-MC neuroblastoma cells, human CGRP 0.8 nM as agonist, Kb estimated as agonist-corrected IC50, mean ± SEM; read-out: Kb hCGRP
measured quantity: Kb (nM)

Example compounds with recorded Kb:
compound structure string	target under test	Kb [nM]
Cc1cc(C)nc(CNC(=O)c2ccc([C@@H](C)[C@@]3(C)C(=O)Nc4ncccc43)cc2)c1	human CGRP receptor (Homo sapiens, UniProt O60894+Q16602)	0.0428
Cc1cc(CNC(=O)c2ccc([C@@H](C)[C@@]3(C)C(=O)Nc4ncccc43)cc2)cc(C2CCC2)n1	human CGRP receptor (Homo sapiens, UniProt O60894+Q16602)	0.00696
Cc1cc(CNC(=O)c2ccc([C@@H](C)[C@@]3(C)C(=O)Nc4ncccc43)cc2)cc(C)n1	human CGRP receptor (Homo sapiens, UniProt O60894+Q16602)	0.0366
Cc1cc(CNC(=O)c2ccc([C@@H](C)[C@@]3(C)C(=O)Nc4ncccc43)cn2)cc(C)n1	human CGRP receptor (Homo sapiens, UniProt O60894+Q16602)	0.0465

[1] Cc1cc(C)nc(CNC(=O)c2ccc([C@@H](C)[C@@]3(C)C(=O)Nc4ncccc43)cn2)c1
[2] Cc1cc(CNC(=O)c2ccc([C@@H](C)[C@@]3(C)C(=O)Nc4ncccc43)cc2)cc(C2CCCC2)n1
[3] Cc1cc(C)nc(CNC(=O)c2ccc([C@@H](C)[C@@]3(C)C(=O)Nc4ncncc43)cc2)c1
Inquiry: Arrange the 3 compounds by rising Kb, starting with the smallest. Give me the labels in the order the question wants.
Reply text: 2, 3, 1

[1] Cc1cc(C#N)nc(CNC(=O)c2ccc([C@@H](C)[C@@]3(C)C(=O)Nc4ncccc43)cc2)c1
[2] Cc1cc(CNC(=O)c2ccc([C@@H](C)[C@@]3(C)C(=O)Nc4ncccc43)cc2)cc(C2CC2)n1
Inquiry: # compare Kb for 1 vs 2 ; return the one with the smaller value // caller expects the label of the chosen entry
Reply text: 2
(2: 0.0266 nM, 1: 0.0404 nM)
